Reported values of IC50 for individual entries
- tested-system: human P2X3 receptor (Homo sapiens (Human), UniProt P56373)
- Sequence (P56373 whole entry): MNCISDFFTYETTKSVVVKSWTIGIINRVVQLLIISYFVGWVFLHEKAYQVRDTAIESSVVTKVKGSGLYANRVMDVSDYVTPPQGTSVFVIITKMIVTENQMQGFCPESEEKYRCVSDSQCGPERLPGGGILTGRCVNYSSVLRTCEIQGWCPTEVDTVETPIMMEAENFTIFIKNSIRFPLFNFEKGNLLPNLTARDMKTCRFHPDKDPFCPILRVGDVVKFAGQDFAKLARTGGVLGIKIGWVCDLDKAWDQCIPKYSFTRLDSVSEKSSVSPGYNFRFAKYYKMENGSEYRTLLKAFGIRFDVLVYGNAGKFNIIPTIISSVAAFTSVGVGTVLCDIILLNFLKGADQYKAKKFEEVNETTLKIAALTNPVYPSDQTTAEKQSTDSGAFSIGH
- procedure-details: P2X3 receptor inhibition, ATP-evoked Fluo-3 fluorescence (FDSS 3000)
- experimental-setup: C6BU-1 cell transfected with human P2X3 receptor gene

INSERT INTO measurements (compound, obs_value) VALUES
  ('CCOc1ccc(/N=c2\[nH]c(=O)n(C[C@H](C)C(=O)O)c(=O)n2Cc2ccc(Cl)cc2)cc1', '0.052 µM'),
  ('COC(=O)[C@H](C)Cn1c(=O)[nH]/c(=N\c2ccc(OC(C)C)cc2)n(Cc2ccc(Cl)cc2)c1=O', '0.007 µM'),
  ('CC(C)Oc1ccc(Nc2nc(=O)n(CC(CO)CO)c(=O)n2Cc2ccc(Cl)cc2)cc1', '0.041 µM');

Prompt: Param readout= IC50; system= human P2X3 receptor (Homo sapiens (Human), UniProt P56373); entry= CC(C)(Cn1c(=O)[nH]/c(=N\c2cccc(Cl)c2)n(Cc2ccc(Cl)cc2)c1=O)C(=O)O ; returns value.
Completion: 0.137 µM

Prompt: And CC(C)Oc1ccc(/N=c2\n(C)c(=O)n(CCOC3CCCCO3)c(=O)n2Cc2ccc(Cl)cc2)cc1F (centres unmarked) ?
Completion: 0.459 µM

Prompt: Further, for CC(C)Oc1ccc(/N=c2\[nH]c(=O)n(CCC(=O)NCC(N)=O)c(=O)n2Cc2ccc(Cl)cc2)cc1F ?
Completion: 0.055 µM

Prompt: For Cc1ccc(Cn2c(=O)n(CC(=O)NCC(=O)O)c(=O)[nH]/c2=N\c2ccc(OC(C)C)c(F)c2)cc1 then?
Completion: 0.035 µM

Prompt: Entry to check: CC(C)Oc1ccc(/N=c2\[nH]c(=O)n(CC3(C(=O)O)CC3)c(=O)n2Cc2ccc(Cl)cc2)cc1Cl
Completion: 0.016 µM

Prompt: Continue with CC(C)n1c(=O)nc(Nc2ccc(OC3CCOCC3)c(Cl)c2)n(Cc2ccc(Cl)cc2)c1=O
Completion: 0.116 µM

Prompt: Then CCOc1ccc(/N=c2\[nH]c(=O)n(CC(C)(C)C(=O)OC)c(=O)n2Cc2ccc(Cl)cc2)cc1C ?
Completion: 0.004 µM

Prompt: Item: CC(C)Oc1ccc(/N=c2\[nH]c(OCC(=O)O)nc(=O)n2Cc2ccc(Cl)cc2)cc1Cl
Completion: 0.034 µM

###

- tested-system: human P2X3 receptor (Homo sapiens (Human))
- procedure-details: P2X3 receptor inhibition, ATP-evoked Fluo-3 fluorescence (FDSS 3000)
- experimental-setup: C6BU-1 cell transfected with human P2X3 receptor gene
quantity-kind: IC50 (nM)
# unit: nM | format: bare number

For orientation, consider the following solved cases.
INSERT INTO assay_data (molecule, obs_value) VALUES
  ('CCOC(=O)C1(Cn2c(=O)[nH]/c(=N\c3ccc(OC(C)C)c(F)c3)n(Cc3ccc(Cl)cc3)c2=O)CC1', 6),
  ('CC(Nc1nc(=O)n(C(C)C)c(=O)n1Cc1ccc(F)cc1)c1ccc(Cl)cc1 (stereo not drawn)', 909);

Please find the next molecule below.
Prompt: Data request, read-out IC50, for CC(C)Oc1ccc(/N=c2\[nH]c(=O)n(C[C@H](C)C(=O)O)c(=O)n2CC2CCCCC2)cc1Cl
Completion: 23

###

- tested-system: human P2X3 receptor (Homo sapiens (Human), UniProt P56373)
- procedure-details: P2X3 receptor inhibition, ATP-evoked Fluo-3 fluorescence (FDSS 3000)
- experimental-setup: C6BU-1 cell transfected with human P2X3 receptor gene
quantity-kind: IC50 (nM)
// note: answer is a bare numeric in nM

Solved cases below.
INSERT INTO measurements (structure_as_smiles, tested_system, quantity_kind, obs_value) VALUES
  ('CC(C)Oc1ccc(Nc2nc(=O)n(CCC(=O)NCCO)c(=O)n2Cc2ccc(Cl)cc2)cc1F', 'human P2X3 receptor (Homo sapiens (Human), UniProt P56373)', 'IC50', 36),
  ('O=c1nc(Nc2cccc(C(F)(F)F)c2)n(Cc2ccc(Cl)cc2)c(=O)n1CCO', 'human P2X3 receptor (Homo sapiens (Human), UniProt P56373)', 'IC50', 178),
  ('O=c1nc(Nc2ccc(OC3CCCC3)c(Cl)c2)n(Cc2ccc(Cl)cc2)c(=O)n1CCO', 'human P2X3 receptor (Homo sapiens (Human), UniProt P56373)', 'IC50', 80);

Prompt: Dear colleague, I am looking for the recorded IC50 of the following compound: COC(=O)[C@H](C)Cn1c(=O)[nH]/c(=N\c2ccc(OC(C)C)c(F)c2)n(Cc2ccc(Cl)cc2)c1=O
Completion: 3

Prompt: And for CC(C)Oc1ccc(/N=c2\[nH]c(=O)n(Cc3cccc(C(=O)O)c3)c(=O)n2Cc2ccc(Cl)cc2)cc1F ?
Completion: 16

Prompt: Query CCOC(=O)CCCn1c(=O)[nH]/c(=N\c2ccc(OC(C)C)c(C)c2)n(Cc2ccc(C)cc2)c1=O next
Completion: 4

Prompt: // same read-out, input: COCCn1c(=O)nc(Nc2ccc(OC(C)C)c(F)c2)n(Cc2ccc(Cl)cc2)c1=O
Completion: 30

Prompt: Would you kindly repeat that for CC(C)Oc1ccc(/N=c2\[nH]c(=O)n(CC(=O)NC(CO)CO)c(=O)n2Cc2ccc(Cl)cc2)cc1F ?
Completion: 7

Prompt: Queued: CC(C)Oc1ccc(Nc2nc(=O)n(CC(C)(CO)CO)c(=O)n2Cc2ccc(Cl)cc2)cc1F
Completion: 9
